Cited source: PubChem BioAssay AID1963867

- System: KRAS-mutant PDC tumor spheroid with HUVEC/MSC, viability
- Assay method text: Anticancer human tumor 327498-153-R-J2-PDC patient-derived uterine carcinosarcoma cell line growth inhibition [KRAS2]
- Measurement parameters: second compound 3.16 µM; first compound 3.16 µM; active compounds read low

{"columns": ["Compound", "viability, T/C (%)"],
 "data": [
  ["COc1cc(Nc2ncc3c(n2)-c2ccc(Cl)cc2C(c2c(F)cccc2OC)=NC3)ccc1C(=O)O + CC1OCC2(CCN(c3cnc(Sc4ccnc(N)c4Cl)c(N)n3)CC2)C1N", 6.67],
  ["CC(=O)OC12COC1CC(O)C1(C)C(=O)C(O)C3=C(C)C(OC(=O)C(O)C(NC(=O)OC(C)(C)C)c4ccccc4)CC(O)(C(OC(=O)c4ccccc4)C21)C3(C)C (stereo not drawn) + C=CC(=O)N1CCN(c2nc(OCC3CCCN3C)nc3c2CCN(c2cccc4cccc(C)c24)C3)CC1CC#N", 10.6],
  ["CC1OCC2(CCN(c3cnc(Sc4ccnc(N)c4Cl)c(N)n3)CC2)C1N (stereo not drawn) + C=CC(=O)N1CCN(c2nc(OCC3CCCN3C)nc3c2CCN(c2cccc4cccc(C)c24)C3)CC1CC#N", 0.15]
]}

====

- Test system: KRAS-mutant PDC tumor spheroid with HUVEC/MSC, viability
- Assay method text: Anticancer human tumor 327498-153-R-J2-PDC cell line growth inhibition [KRAS2];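 further: spheroids exposed to agents for seven days before reading; 100% = DMSO vehicle wells so lower means fewer viable cells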
- Measurement parameters: second compound 1 µM; first compound 0.001 µM; active compounds read low
Readings of viability, T/C for the listed compounds

{"columns": ["Compound", "Experimental target", "viability, T/C (%)"],
 "data": [
  ["Cn1ncnc1[C@H]1c2n[nH]c(=O)c3cc(F)cc(c23)N[C@@H]1c1ccc(F)cc1 + CNCc1ccccc1-c1csc(C(C)Nc2nc(C)nc3cc(OC)c(OC)cc23)c1", "KRAS-mutant PDC tumor spheroid with HUVEC/MSC, viability", 68.8],
  ["CC(C)n1nc(-c2ccc3oc(N)nc3c2)c2c(N)ncnc21 + C=CC(=O)N1CCN(c2nc(OCC3CCCN3C)nc3c2CCN(c2cccc4cccc(C)c24)C3)CC1CC#N", "KRAS-mutant PDC tumor spheroid with HUVEC/MSC, viability", 33],
  ["CC(=O)Nc1cccc(-n2c(=O)n(C3CC3)c(=O)c3c(Nc4ccc(I)cc4F)n(C)c(=O)c(C)c32)c1 + CNCc1ccccc1-c1csc(C(C)Nc2nc(C)nc3cc(OC)c(OC)cc23)c1", "KRAS-mutant PDC tumor spheroid with HUVEC/MSC, viability", 53.9],
  ["Cn1ncnc1[C@H]1c2n[nH]c(=O)c3cc(F)cc(c23)N[C@@H]1c1ccc(F)cc1 + C=CC(=O)N1CCN(c2nc(OCC3CCCN3C)nc3c2CCN(c2cccc4cccc(C)c24)C3)CC1CC#N", "KRAS-mutant PDC tumor spheroid with HUVEC/MSC, viability", 53.7],
  ["Cn1ncnc1[C@H]1c2n[nH]c(=O)c3cc(F)cc(c23)N[C@@H]1c1ccc(F)cc1 + C=CC(=O)N1CCN(c2nc(=O)n(-c3c(C)ccnc3C(C)C)c3nc(-c4c(O)cccc4F)c(F)cc23)C(C)C1", "KRAS-mutant PDC tumor spheroid with HUVEC/MSC, viability", 59.5]
]}

====

- Tested on: KRAS-mutant PDC tumor spheroid with HUVEC/MSC, viability
- Assay method text: Anticancer human tumor 327498-153-R-J2-PDC cell line growth inhibition [KRAS2]; active = viability on the fitted dose curve at most 10% of control; inactive = the rest;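 further: spheroids exposed to agents for seven days before reading; 100% = DMSO vehicle wells so lower means fewer viable cells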
- Measurement parameters: second compound 1 µM; first compound 1 µM
Outcomes: active, inactive

{"columns": ["Compound", "Discrete label"],
 "data": [
  ["O=C(c1cc(Cc2n[nH]c(=O)c3ccccc23)ccc1F)N1CCN(C(=O)C2CC2)CC1 + CNCc1ccccc1-c1csc(C(C)Nc2nc(C)nc3cc(OC)c(OC)cc23)c1", "inactive"],
  ["CC1COCCN1c1cc(-c2ccnn2C)c2ccnc(-c3ccn[nH]3)c2n1 (stereo unspecified) + CC1OCC2(CCN(c3cnc(Sc4ccnc(N)c4Cl)c(N)n3)CC2)C1N", "active"],
  ["COc1cc2nccc(Oc3ccc(NC(=O)C4(C(=O)Nc5ccc(F)cc5)CC4)cc3)c2cc1OC + COc1cc2nc(C)nc(NC(C)c3cc(N)cc(C(F)(F)F)c3)c2cc1OC1CCOC1", "inactive"],
  ["Cn1nccc1Nc1nccc(-c2cc3c(s2)C(C)(C)N(CCN2CCOCC2)C3=O)n1 + CC1OCC2(CCN(c3cnc(Sc4ccnc(N)c4Cl)c(N)n3)CC2)C1N", "inactive"],
  ["CC1COCCN1c1cc(-c2ccnn2C)c2ccnc(-c3ccn[nH]3)c2n1 (stereo unspecified) + C=CC(=O)N1CCN(c2nc(=O)n(-c3c(C)ccnc3C(C)C)c3nc(-c4c(O)cccc4F)c(F)cc23)C(C)C1", "active"],
  ["COC(=O)c1ccc2c(C(=Nc3ccc(N(C)C(=O)CN4CCN(C)CC4)cc3)c3ccccc3)c(O)[nH]c2c1 + CC1OCC2(CCN(c3cnc(Sc4ccnc(N)c4Cl)c(N)n3)CC2)C1N", "inactive"]
]}
